Cited source: patent US20070105771A1

# system under test: T1, human CD26-derived 13 mer peptide 9 (human)
# T1 peptide: SDHEYLYKQENNI
# assay summary: peptide microarray

binder	Mean Signal Value
rhuMAb 420 (antibody, human IgG1, V domains shown, X420 VH and X380 VL with human IgG1 and human kappa constant regions; also called X420 (IgG1)) VH: EVQLVESGGGVKQPGETLRLTCTASGFSLSTYGVHWVRQAPGKGLEWVGVIWGDGRTDYDAAFMSRVTISKDTSKSTVYLQMNSLRAEDTAVYYCMRNRHDWFDYWGQGTTVTVSS VL: EIEMTQSPSSLSVSAGERATISCSASQDIRNSLNWYQQKPGQAPRLLIYYSSNLHTGVPARFSGSGSGTDFTLTISRLEPEDVAIYYCQQSNKLPLTFGSGTKVEIKR	0
rhuMAb 412 (antibody, human IgG1, V domains shown, X385 VH and X380 VL with human IgG1 and human kappa constant regions; also called X412) VH: EVQLVQSGGGVKQPGETLRLTCTASGFSLTTYGVHWVRQAPGKGLEWVGVIWGDGRTDYDAAFMSRVTISKDTSKSTAYLQMNSLRAEDTAVYYCMRNRHDWFDYWGQGTTVTVSS VL: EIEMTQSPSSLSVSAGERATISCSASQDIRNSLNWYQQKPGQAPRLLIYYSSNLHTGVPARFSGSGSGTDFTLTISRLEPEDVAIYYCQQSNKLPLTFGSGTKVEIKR	0
rhuMAb 409 (antibody, human IgG1, V domains shown, CM03 VH and VL with human IgG1 heavy chain constant region and human kappa constant region; also called X409) VH: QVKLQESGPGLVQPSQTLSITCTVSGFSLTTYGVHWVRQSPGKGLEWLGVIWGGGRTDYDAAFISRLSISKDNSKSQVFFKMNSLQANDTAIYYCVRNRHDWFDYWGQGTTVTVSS VL: DIQMTQSPSSLSASLGDRVTITCSASQGIRNSLNWYQQKPDGAVKLLIYYSSNLHSGVPSRFSGSGSGTDFSLTISNLEPEDIATYYCQQSIKLPFTFGSGTKLEIKR	0
rhuMAb 411 (antibody, human IgG1, kappa, V domains shown, also called X411) VH: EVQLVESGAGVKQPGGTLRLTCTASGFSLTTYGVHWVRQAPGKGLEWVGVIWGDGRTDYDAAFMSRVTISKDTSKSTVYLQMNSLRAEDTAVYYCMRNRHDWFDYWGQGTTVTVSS VL: DILLTQSPSSLSATPGERATITCRASQGIRNNLNWYQQKPGQAPRLLIYYSSNLQSGVPSRFSGSGSGTDFTLTISRLQPEDVAAYYCQQSIKLPFTFGSGTKVEIKR	0.0673
